assay.target: serine hydroxymethyltransferase (SHMT) (Oryctolagus cuniculus, UniProt P07511)
Construct: Three such sources are rabbit liver (LaVerne Schirch and Merle Mason, J. Biol. Chem., Vol. 237, No. 8, August 1962); from tissue; host or cells: rabbit liver
Sequence (P07511 2-484 limits assumed): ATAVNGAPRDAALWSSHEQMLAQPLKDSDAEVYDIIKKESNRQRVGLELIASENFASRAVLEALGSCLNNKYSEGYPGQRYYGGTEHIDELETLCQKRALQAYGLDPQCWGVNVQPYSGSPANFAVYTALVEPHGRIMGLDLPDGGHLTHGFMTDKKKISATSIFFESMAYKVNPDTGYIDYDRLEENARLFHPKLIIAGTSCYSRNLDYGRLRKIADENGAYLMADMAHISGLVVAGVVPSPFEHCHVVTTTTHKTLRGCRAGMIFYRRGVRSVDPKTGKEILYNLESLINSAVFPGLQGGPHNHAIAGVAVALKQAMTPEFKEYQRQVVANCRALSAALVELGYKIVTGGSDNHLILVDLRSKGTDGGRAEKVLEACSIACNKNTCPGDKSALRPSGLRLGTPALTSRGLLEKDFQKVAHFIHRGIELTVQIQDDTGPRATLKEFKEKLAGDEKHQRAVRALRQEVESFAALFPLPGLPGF
measurement.description: Conversion of aldehyde substrates and glycine to β-hydroxy-α-amino acids by SHMT (HPLC assay)
Format: biochemical, rabbit
Design: key: + = conversion; - = no detectable conversion
experimental.conditions: incubation with glycine, 10 mM phosphate buffer pH 7.3, pyridoxal 5′-phosphate about 80 µM, about 37°C
parameter: Aldehyde (RCHO) Substrates for SHMT, Enzyme Rabbit Liver

// known answers, use as guide
INSERT INTO assay_data (compound, result) VALUES
  ('CC=O', '+'),
  ('O=Cc1ccccc1', '+'),
  ('O=CCCCOC=O [-CH2CH2CH2OCHO, O-formyl 4-hydroxybutanal]', '+'),
  ('COC(=O)CCCC=O', '+'),
  ('O=Cc1ccco1', '+');

Field: next compound
IN: Query: Aldehyde (RCHO) Substrates for SHMT, Enzyme Rabbit Liver; subject: O=CC(=O)O
OUT: -
